Target: IgG receptor FcRn large subunit p51 (Homo sapiens)
Experiment: Binding affinity to human FcRn at pH 6 by surface plasmon resonance assay

{"substance": "H-QRFSTGHFGGLYPSNGP-OH", "Kd": "230 µM"}
{"substance": "H-TGHFGGLYP-OH", "Kd": "> 250 µM"}

###

Biological target: IgG receptor FcRn large subunit p51 (Homo sapiens, UniProt P55899)
Sequence (P55899 whole entry): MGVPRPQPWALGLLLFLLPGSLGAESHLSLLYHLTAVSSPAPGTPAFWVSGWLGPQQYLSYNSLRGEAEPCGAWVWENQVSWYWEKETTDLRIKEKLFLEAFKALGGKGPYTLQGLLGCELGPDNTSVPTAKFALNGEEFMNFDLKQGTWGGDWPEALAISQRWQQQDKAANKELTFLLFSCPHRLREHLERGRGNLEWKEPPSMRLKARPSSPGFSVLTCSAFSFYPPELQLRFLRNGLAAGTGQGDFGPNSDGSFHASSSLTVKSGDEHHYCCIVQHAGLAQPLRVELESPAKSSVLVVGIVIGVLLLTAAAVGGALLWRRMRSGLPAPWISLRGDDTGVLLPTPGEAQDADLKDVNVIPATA
Assay: Binding affinity to human FcRn at pH 7.4 by surface plasmon resonance assay
Bridge positions count the residues as written; N and C are the ends. Peptide text beside a SMILES is read from it.
metric: log10(Kd) (log10 of the value in µM)

{"compound": "CC[C@H](C)[C@H](NC(=O)[C@@H](NC(=O)[C@@H](N)CCCCN)[C@@H](C)CC)C(=O)N[C@H]1CSSC[C@@H](C(=O)N[C@@H](CCC(N)=O)C(=O)NCC(=O)N[C@@H](CCCCN)C(=O)O)NC(=O)[C@H](Cc2ccc(O)cc2)NC(=O)[C@H](CCSC)NC(=O)CNC(=O)CNC(=O)[C@H](Cc2ccccc2)NC(=O)[C@H](Cc2cnc[nH]2)NC(=O)CNC(=O)[C@@H]2CCCN2C(=O)[C@H](CO)NC1=O (H-KIICSPGHFGGMYCQGK-OH; disulfide 4-14)", "log10(Kd)": 1.89}
{"compound": "CC[C@H](C)[C@@H]1NC(=O)CNC(=O)CNC(=O)[C@H](Cc2ccccc2)NC(=O)[C@H](Cc2cnc[nH]2)NC(=O)CNC(=O)[C@H]([C@@H](C)O)NC(=O)[C@H](C(C)C)NC(=O)[C@@H](NC(=O)CNC(=O)CNC(=O)CN)CSSC[C@@H](C(=O)N[C@@H](CC(N)=O)C(=O)N[C@@H](Cc2ccc(O)cc2)C(=O)N[C@@H](CCC(N)=O)C(=O)O)NC(=O)[C@H](Cc2ccc(O)cc2)NC1=O (H-GGGCVTGHFGGIYCNYQ-OH; disulfide 4-14)", "log10(Kd)": 1.54}
{"compound": "CC(C)C[C@@H](C(=O)N[C@@H](Cc1ccc(O)cc1)C(=O)N1CCC[C@H]1C(=O)N[C@@H](CS)C(=O)O)N(C)C(=O)CN(C)C(=O)CNC(=O)[C@H](Cc1ccccc1)NC(=O)[C@H](Cc1ccc(N)cc1)NC(=O)CNC(=O)[C@@H](NC(=O)[C@@H](NC(=O)[C@H](Cc1ccccc1)NC(=O)[C@@H](N)CCCNC(=N)N)C(C)(C)S)[C@@H](C)O", "log10(Kd)": 0.04}
{"compound": "CC(C)C[C@@H](C(=O)N[C@@H](Cc1ccc(O)cc1)C(=O)N1CCC[C@H]1C(=O)N[C@@H](CS)C(=O)O)N(C)C(=O)CN(C)C(=O)CNC(=O)[C@H](Cc1ccccc1)NC(=O)[C@H](Cc1ccc(N=C(N)N)cc1)NC(=O)CNC(=O)[C@@H](NC(=O)[C@@H](NC(=O)[C@H](Cc1ccccc1)NC(=O)[C@@H](N)CCCN=C(N)N)C(C)(C)S)[C@@H](C)O", "log10(Kd)": -1.14}
{"compound": "CC(C)C[C@@H](C(=O)N[C@@H](Cc1ccc(O)cc1)C(=O)N1CCC[C@H]1C(=O)N[C@@H](CS)C(=O)O)N(C)C(=O)CN(C)C(=O)CNC(=O)[C@H](Cc1ccccc1)NC(=O)[C@H](Cc1ccsc1)NC(=O)CNC(=O)[C@@H](NC(=O)[C@@H](NC(=O)[C@H](Cc1ccccc1)NC(=O)[C@@H](N)CCCN=C(N)N)C(C)(C)S)[C@@H](C)O", "log10(Kd)": 0.48}

Reference for the values: ChEMBL document CHEMBL1150419
